- Condition notes: a range is the spread between reports
Overview of reported melting point across a group of compounds:

Worked cases, melting point given:
{"columns": ["Smiles str", "melting point"],
 "data": [
  ["CCOc1ccc(C#N)cc1", "61.5 to 62 °C"],
  ["O=C(O)C1CC1", "15.5 to 18.5 °C"],
  ["c1ccc(-c2ccc3ccccc3n2)cc1", "83 to 86 °C"]
]}

Incoming: // returns reported melting point for input `CC1(C)OC(=O)CC(=O)O1`
Outgoing: 94 to 98 °C

Incoming: // returns reported melting point for input `c1cc2ccc3ccc4ccc5ccc6ccc1c1c2c3c4c5c61`
Outgoing: 437 to 440 °C

Incoming: // returns reported melting point for input `CCCC(C)=O`
Outgoing: -78 to -76.9 °C

Incoming: // returns reported melting point for input `Clc1ccccc1`
Outgoing: -46 to -45 °C

Incoming: // returns reported melting point for input `BrCCCBr`
Outgoing: -34.2 to -34 °C

###

Overview of reported melting point across a group of compounds:
- Condition notes: a range is the spread between reports

Worked cases, melting point given:
{"columns": ["Compound", "melting point"],
 "data": [
  ["O=C1C(O)=C(Cl)C(=O)C(O)=C1Cl", "283 to 284 °C"],
  ["NNC(=O)c1ccccc1[N+](=O)[O-]", "121 to 124 °C"],
  ["COc1cccc(C#N)c1OC", "44.5 to 46 °C"]
]}

Incoming: // returns reported melting point for input `Cc1ccc(Cl)c(Cl)c1`
Outgoing: -15.2 to -15 °C

Incoming: // returns reported melting point for input `CCCCCCCCCCCCO`
Outgoing: 24 to 26 °C

###

- Condition notes: a range is the spread between reports
Readout name: melting point

Worked cases, melting point given:
{"columns": ["Compound", "Value"],
 "data": [
  ["CCCCCCCCCCCCCCBr", "5 to 5.6 °C"],
  ["N#CCCCCC#N", "1 to 2 °C"],
  ["CCCCCCCCCCCCS", "-8 to -7 °C"]
]}

Incoming: // returns reported melting point for input `CCOC(=O)c1c[nH]nc1N`
Outgoing: 103 to 106 °C

Incoming: // returns reported melting point for input `c1ccc(-c2cnc(-c3ccc(-c4ncc(-c5ccccc5)o4)cc3)o2)cc1`
Outgoing: 242 to 245 °C

###

- Condition notes: a range is the spread between reports
Readout name: melting point

{"columns": ["Compound", "melting point"],
 "data": [
  ["CCc1ccccc1", "-95 to -94.9 °C"],
  ["Cc1ccc2sc(C)nc2c1", "38 to 40 °C"]
]}

Incoming: // returns reported melting point for input `O=C=Nc1ccc(N=C=O)cc1`
Outgoing: 94 to 97.5 °C

Incoming: // returns reported melting point for input `ClCc1ccccc1CCl`
Outgoing: 55 to 56 °C

Incoming: // returns reported melting point for input `Cc1cc(C)c(C)c(C)c1`
Outgoing: -24 to -23.7 °C

Incoming: // returns reported melting point for input `CC(C)C1CC1`
Outgoing: -113 °C

Incoming: // returns reported melting point for input CC1OC1C (stereo unspecified)
Outgoing: -85 to -80 °C

Incoming: // returns reported melting point for input `O=C(O)[C@H](O)[C@@H](O)C(=O)O`
Outgoing: 169 to 171 °C

Incoming: // returns reported melting point for input `Cc1cc2ccccc2[nH]1`
Outgoing: 58 to 61 °C

Incoming: // returns reported melting point for input `CCOC(=O)n1ccn(C)c1=S`
Outgoing: 124 °C

Incoming: // returns reported melting point for input `O=C(Cl)CCCCCCCCC(=O)Cl`
Outgoing: -5 to -2.5 °C

Incoming: // returns reported melting point for input CC1CNCC(C)O1 (stereo unspecified)
Outgoing: -88 to -85 °C

Incoming: // returns reported melting point for input `Cc1ccccc1C(N)=O`
Outgoing: 142 to 147 °C

Incoming: // returns reported melting point for input `CCCC(C)(C)O`
Outgoing: -103 to -102 °C

Incoming: // returns reported melting point for input CCC(C)C(=O)OC1CC(C)C=C2C=CC(C)C(CCC3CC(O)CC(=O)O3)C21 (stereo unspecified)
Outgoing: 174 to 175 °C

Incoming: // returns reported melting point for input `O=C(O)c1ccccc1C(=O)c1ccccc1`
Outgoing: 127 to 129 °C
